# experimental.system: Acetylcholinesterase (Electrophorus electricus) (UniProt O42275)
# Sequence (O42275 24-633 limits assumed): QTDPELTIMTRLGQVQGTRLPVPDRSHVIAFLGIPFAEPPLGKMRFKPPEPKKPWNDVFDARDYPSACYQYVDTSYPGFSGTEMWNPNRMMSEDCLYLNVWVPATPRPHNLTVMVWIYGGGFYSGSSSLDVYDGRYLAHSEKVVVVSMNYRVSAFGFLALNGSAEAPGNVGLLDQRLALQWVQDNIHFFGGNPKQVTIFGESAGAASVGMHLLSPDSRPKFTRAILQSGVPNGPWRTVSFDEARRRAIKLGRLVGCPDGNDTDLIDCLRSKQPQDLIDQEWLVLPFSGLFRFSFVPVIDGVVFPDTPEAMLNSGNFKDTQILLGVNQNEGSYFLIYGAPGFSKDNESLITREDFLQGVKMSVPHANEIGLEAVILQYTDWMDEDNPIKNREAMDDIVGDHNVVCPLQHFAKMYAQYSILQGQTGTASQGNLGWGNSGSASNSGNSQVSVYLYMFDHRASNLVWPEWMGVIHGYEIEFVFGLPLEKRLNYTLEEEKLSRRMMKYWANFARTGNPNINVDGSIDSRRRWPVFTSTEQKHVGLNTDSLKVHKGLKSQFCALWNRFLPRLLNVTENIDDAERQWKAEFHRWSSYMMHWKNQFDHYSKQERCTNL
# procedure.details: Inhibition of Electric eel AChE at 10 uM using acetylthiocholine iodide as substrate preincubated for 5 mins followed by substrate addition measured after 5 mins by Ellman's method relative to control

compound | inhibition
O=C1c2ccccc2S(=O)(=O)N1CCCCN1CCN(Cc2ccccc2F)CC1 | > 50%
O=C1c2ccccc2S(=O)(=O)N1CCN1CCN(CCc2ccccc2F)CC1 | < 10%
O=C1c2ccccc2S(=O)(=O)N1CCN1CCCN(Cc2ccccc2F)C1 | 18.4%
O=C1c2ccccc2S(=O)(=O)N1CCCCCN1CCN(Cc2ccccc2F)CC1 | > 50%
O=C1c2ccccc2C(=O)N1CCN1CCN(Cc2ccccc2F)CC1 | 41.8%
O=C1c2ccccc2S(=O)(=O)N1CCN1CCCC(NCc2cc(F)cc(F)c2)C1 (stereo not given) | < 10%
O=C1c2ccccc2C(=O)N1CCNC1CCCN(Cc2ccccc2)C1 (stereo not given) | < 10%
O=C1c2ccccc2S(=O)(=O)N1CCN1CCN(CCc2ccccc2)CC1 | < 10%
O=C1c2ccccc2S(=O)(=O)N1CCN1CCCC(NCc2ccccc2F)C1 (stereo not given) | < 10%
O=C1c2ccccc2S(=O)(=O)N1CCN1CCCN(Cc2cc(F)cc(F)c2)C1 | 25.4%
O=C1c2ccccc2S(=O)(=O)N1CCN1CCN(Cc2ccc(F)cc2)CC1 | > 50%
O=C1c2ccccc2S(=O)(=O)N1CCN1CCN(Cc2ccccc2F)CC1 | > 50%
O=C1c2ccccc2C(=O)N1CCN1CCN(CCc2ccccc2F)CC1 | < 10%
O=C1c2ccccc2S(=O)(=O)N1CCCCCCN1CCN(Cc2ccccc2)CC1 | 41.7%
O=C1c2ccccc2C(=O)N1CCN1CCCN(Cc2cc(F)cc(F)c2)C1 | < 10%
O=C1c2ccccc2S(=O)(=O)N1CCCCCCN1CCN(Cc2ccccc2F)CC1 | > 50%
O=C1c2ccccc2C(=O)N1CCNC1CCN(Cc2ccccc2)C1 (stereo not given) | 25.7%
O=C1c2ccccc2S(=O)(=O)N1CCCCN1CCN(Cc2ccccc2)CC1 | > 50%
O=C1c2ccccc2S(=O)(=O)N1CCCCCN1CCN(Cc2ccccc2)CC1 | 43.1%
O=C1c2ccccc2C(=O)N1CCN1CCCC(NCc2cc(F)cc(F)c2)C1 (stereo not given) | > 50%
